# ASSAY NAME: growth of efflux-deficient E. coli DRC39 – strain DRC39, OD650, 24 h, E. coli filamentation inducers, primary screen (AID 1178);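 further: growth measured as culture turbidity by optical density at 650 nm; test concentration not given here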
# CONDITIONS: E. coli DRC39 acrAB, higher = more signal, called active from +8 up or from −8 down
PARAMETER: z-score
# respond with the number and nothing more

Entry `O=c1cccc(-c2cccc3ccccc23)o1` — recorded z-score = -0.0645

Entry `CC(C)(C)OC(=O)CC[C@@]1(C(=O)N2CCOCC2)N=C(c2ccc(OCCCO)cc2)O[C@@H]1c1ccccc1N=[N+]=[N-]` — recorded z-score = 0.611

Entry `[N-]=[N+]=Nc1ccccc1[C@@H]1OC(c2ccc(OCCCO)cc2)=N[C@]1(CCS(=O)(=O)c1ccccc1)C(=O)N1CCCCC1` — recorded z-score = -0.0955

Entry `COc1ccc([Si](C)(C)[C@H]2[C@H](CCO)O[C@@]3(C(=O)N(Cc4ccccc4)c4ccc(N5C(=O)COc6ccccc65)cc43)[C@@H]2C)cc1` — recorded z-score = 1.2

Entry `COCCOC(=O)N1C(=O)[C@@]2(c3cc(C#Cc4ccc(OC)cc4)ccc31)[C@H](c1ccc(OCCO)cc1)N1[C@H](c3ccccc3)[C@H](c3ccccc3)OC(=O)[C@H]1[C@@H]2C(=O)N1CCc2cc(OC)c(OC)cc2C1` — recorded z-score = -0.148

Entry Cc1ccc(C(C)CC(O)C2C=CC3C(=O)NC(=O)C3N2Nc2ccccn2)o1 (configuration not stated) — recorded z-score = 0.168

Entry `C=C[C@H](C)[C@H](O)c1ccc(OCCO)cc1` — recorded z-score = 0.74

---

# Test system: Lefty1
# ASSAY NAME: Lefty1 protein binding to printed compounds – biochemical, small-molecule microarray, 635/667 nm fluorescence, primary screen (AID 1139)
# CONDITIONS: fluorescence 635/667, higher = more signal
Values of composite z-score greater than or equal to -0.03 map to Criterion met; values below map to Criterion not met.

Ask: Kindly determine if composite z-score recorded for O=C(NCC(O)CO)[C@@]1(Cc2ccccc2)COC(c2ccc(OCCCO)cc2)=N1 (some centres not stated) is above or exactly -0.03.
Result: Criterion not met

Ask: Kindly determine if composite z-score recorded for `COCCOC(=O)N1C(=O)[C@@]2(c3cc(C#CC4=CCCCC4)ccc31)[C@H](c1ccc(OCCO)cc1)N1[C@H](c3ccccc3)[C@H](c3ccccc3)OC(=O)[C@H]1[C@@H]2C(=O)Nc1nc2ccccc2s1` is above or exactly -0.03.
Result: Criterion met

Ask: Kindly determine if composite z-score recorded for `COCCn1c(C(=O)N2CCCC2)cc2c1C[C@H]1CN(C(=O)c3ccccc3)[C@@](Cc3ccc(OC)cc3)(C(=O)OC)[C@@H]21` is above or exactly -0.03.
Result: Criterion met

Ask: Kindly determine if composite z-score recorded for `COCC1=C([C@H](O)CCc2ccccc2)[C@H](CO)[C@@H]2C(=O)N(Cc3ccccc3)C(=O)[C@@H]2C1` is above or exactly -0.03.
Result: Criterion met

Ask: Kindly determine if composite z-score recorded for `O=C(CS)NCCCCCNC(=O)[C@H]1C[C@H]2C(=O)N[C@@H](Cc3ccccc3)C(=O)N2[C@H]1c1cccc(OCCO)c1` is above or exactly -0.03.
Result: Criterion met

Ask: Kindly determine if composite z-score recorded for CC(C)C(CO)N1C(=O)[C@@H]2[C@H]3C(=O)OCC=C[C@H]3OC23C=CCN(c2ccc4ccccc4c2)C(=O)[C@@H]13 (some centres not stated) is above or exactly -0.03.
Result: Criterion not met

Ask: Kindly determine if composite z-score recorded for `COCCOC(=O)N1C(=O)[C@@]2(c3ccccc31)[C@H](c1ccc(O)cc1)N1[C@H](c3ccccc3)[C@H](c3ccccc3)OC(=O)[C@H]1[C@@H]2C(N)=O` is above or exactly -0.03.
Result: Criterion not met
